target: MDMX (Homo sapiens); experiment: fluorescence polarization assay, MDMX binding; details: read-out: Ki (μM) ± SD MDMX; fluorescence polarization, PMDM-F peptide, pH 7.5
Sequence (O15151 whole entry): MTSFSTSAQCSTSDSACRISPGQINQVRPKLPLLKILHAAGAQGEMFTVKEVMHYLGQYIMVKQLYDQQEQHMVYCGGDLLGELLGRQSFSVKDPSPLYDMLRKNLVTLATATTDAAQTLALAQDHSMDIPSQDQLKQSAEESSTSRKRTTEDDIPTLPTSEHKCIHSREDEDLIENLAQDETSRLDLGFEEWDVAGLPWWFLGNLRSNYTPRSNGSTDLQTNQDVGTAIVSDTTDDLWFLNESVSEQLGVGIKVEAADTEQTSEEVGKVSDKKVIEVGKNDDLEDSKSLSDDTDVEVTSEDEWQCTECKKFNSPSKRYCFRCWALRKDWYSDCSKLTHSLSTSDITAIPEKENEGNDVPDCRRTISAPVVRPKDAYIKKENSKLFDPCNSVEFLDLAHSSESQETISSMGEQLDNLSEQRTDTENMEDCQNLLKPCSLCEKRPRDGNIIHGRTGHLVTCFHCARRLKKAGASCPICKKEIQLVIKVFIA
The entries below are paired with their reported Ki.
Assay Readout: Ki

structure_smiles=Cc1cccc(S(=O)(=O)N2C(=O)/C(=C/c3ccc(Cl)cc3)c3ccccc32)c1 assay_readout=Ki meas_value="> 50 µM"
structure_smiles=Cc1ccccc1S(=O)(=O)N1C(=O)/C(=C/c2ccc(Cl)cc2)c2ccccc21 assay_readout=Ki meas_value="34.7 µM"
structure_smiles=O=C1/C(=C/c2ccc(Cl)cc2)c2ccccc2N1S(=O)(=O)c1cccc(Cl)c1 assay_readout=Ki meas_value="17.3 µM"
structure_smiles=O=C1/C(=C/c2cccc(Cl)c2)c2ccccc2N1S(=O)(=O)c1ccccc1Br assay_readout=Ki meas_value="24.4 µM"
